- Tested on: 362531-283-R-J2-PDC complex spheroid viability;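 further: spheroids exposed to the agents for 7 days before readout; luminescence viability as percent of DMSO vehicle control wells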
- method.summary: Anticancer human tumor 362531-283-R-J2-PDC patient-derived colon adenocarcinoma cell line growth inhibition [RAS]
- experimental.conditions: second compound 0.316 µM; first compound 0.03 µM; hits give low values
observed.property: viability, T/C (%)
Report the value in % with no unit label.

The cases that follow already have their viability, T/C on record.
compound	observed.property	endpoint.unit	endpoint.result
CC1(C)CCC(Nc2ncc(C(F)(F)F)c(-c3c[nH]c4c(P(C)(C)=O)c(C#N)ccc34)n2)CN1 (centres undefined) + C#Cc1c(F)ccc2cc(O)cc(-c3ncc4c(N5CC6CCC(C5)N6)nc(OCC56CCCN5CC(F)C6)nc4c3F)c12	viability, T/C	%	90.2
CCc1c2c(nc3ccc(O)cc13)-c1cc3c(c(=O)n1C2)COC(=O)[C@]3(O)CC + C#Cc1c(F)ccc2cc(O)cc(-c3ncc4c(N5CC6CCC(C5)N6)nc(OCC56CCCN5CC(F)C6)nc4c3F)c12	viability, T/C	%	40.5
CC1(C)CCC(Nc2ncc(C(F)(F)F)c(-c3c[nH]c4c(P(C)(C)=O)c(C#N)ccc34)n2)CN1 (centres undefined) + C=CC(=O)N1CCN(c2nc(OCC3CCCN3C)nc3c(F)c(-c4nc(N)cc(C)c4C(F)(F)F)c(Cl)cc23)C(C)C1	viability, T/C	%	98.6

For the next question, use this compound.
GET /value?item= CCc1c2c(nc3ccc(O)cc13)-c1cc3c(c(=O)n1C2)COC(=O)[C@]3(O)CC + C=CC(=O)N1CCN(c2nc(OCC3CCCN3C)nc3c(F)c(-c4nc(N)cc(C)c4C(F)(F)F)c(Cl)cc23)C(C)C1 &field=viability, T/C returns 43.8
